Tested on: P-388 (suspension culture of a lymphoid neoplasm from DBA/2 mouse)
ASSAY TEXT: Antitumor screening, growth inhibition of P-388 cells
Assay type: cell-based
EXPERIMENTAL PARAMETERS: P388, 72 h, three days of incubation at 37°C, approximate IC₅₀ vs control wells, duplicate
QUANTITY: IC50 (µg/mL)
Numeric only. Scale: µg/mL

COMPOUND	IC50 [µg/mL]
CCCCCCCCCCCCCCCCCCCCC(=O)OC(CC(OC(C)=O)C(OC(C)=O)C(C)OC(C)=O)c1coc(Cc2cnco2)n1 (stereo not shown) [Digonazole triacetate (8), Digonazole triacetate]	0.2
CCCCCCCCCCCCCCCCCCCCC(=O)OC(CC(O)C(O)C(C)O)c1coc(Cc2cnco2)n1 (stereo not shown)	2.5

Req: Could you share which IC50 value was measured for CC(=O)OC(CC(OC(C)=O)C(OC(C)=O)C(C)OC(C)=O)c1coc(Cc2cnco2)n1 (stereo not shown) ?
Resp: 10

###

// IC50 lookup, one value per entry
Test system: A-549 (monolayer culture of a human lung carcinoma)
ASSAY TEXT: Antitumor screening, growth inhibition of A-549 cells (Crystal Violet staining)
Assay type: cell-based
EXPERIMENTAL PARAMETERS: A549, 72 h, three days of incubation at 37°C, approximate IC₅₀ vs control wells, duplicate
Write the number in mg/L without appending the unit.

Example compounds with recorded IC50:
COMPOUND	IC50, mg/L
CCCCCCCCCCCCCCCCCCCCC(=O)OC(CC(O)C(O)C(C)O)c1coc(Cc2cnco2)n1 (stereo not shown)	0.2
CCCCCCCCCCCCCCCCCCCCC(=O)OC(CC(OC(C)=O)C(OC(C)=O)C(C)OC(C)=O)c1coc(Cc2cnco2)n1 (stereo not shown) [Digonazole triacetate (8), Digonazole triacetate]	0.01
CC(=O)OC(CC(OC(C)=O)C(OC(C)=O)C(C)OC(C)=O)c1coc(Cc2cnco2)n1 (stereo not shown)	1

From here, focus on the item given below.
Req: I am curious: what IC50 value has been reported for CC(O)C(O)C(O)CC(O)c1coc(Cc2cnco2)n1 (stereo not shown) ?
Resp: 5
